- assayRemarks: recombinant barcode read abundance after kanamycin selection (control-corrected) (log10(CPM+1)); higher = more efficient recombination; sequences stand for … in AGTGCAGAGAAAATCGGCCAGTTTTCTCTGCCTGCAGTCCGCATGCCGT…AGATTTATGCAGCGGACTGCCTTTCTCCCAAAGTGATAAACCGGACAGTATCATGGACCGGTTTTCCCGGTAATCCGTATTTGCAAGGTTGGTTTCACT; site = the 11-nt target
experimentalEndpoint: recombinant barcode read abundance (log10)
Could you keep your reply to the number by itself?

[[record]]
chain = "CTGAGTTCTTGGGTTCTAACCTGTTGCCA (site CTGAGTCCTTG)"
recordedvalue = 0.269

[[record]]
chain = "CTCGGACCTTGGGTTCTAACCTGTTGCCT (site CTCGGAGCTAG)"
recordedvalue = 0.147

[[record]]
chain = "GGACCTCCTTGGGTTCTAACCTGTTGCTT (site GGACCTCCTAC)"
recordedvalue = 0.221

[[record]]
chain = "CTCGGAACTTGGGTTCTAACCTGTTGCCT (site CTCGGATCTAG)"
recordedvalue = 0.366

[[record]]
chain = "GAACCTTCTTGGGTTCTAACCTGTTGCGG (site GAACCTTCTCC)"
recordedvalue = 0.93


Query block: Consider the sequence shown here: CCTAATGCTTGGGTTCTAACCTGTTGCCT (site CCTAATGCTAG) What is its recorded recombinant barcode read abundance (log10)?
Result block: 0.0345

Query block: Consider the sequence shown here: CTCGGACCTTGGGTTCTAACCTGTTGCCT (site CTCGGATCTAG) What is its recorded recombinant barcode read abundance (log10)?
Result block: 0.263

Query block: Consider the sequence shown here: GAGTGCCCTTGGGTTCTAACCTGTTGCTT (site GTGTGGCCTAA) What is its recorded recombinant barcode read abundance (log10)?
Result block: 0.128

Query block: Consider the sequence shown here: GGAGGGACTTGGGTTCTAACCTGTTGCCT (site GAAGGGACTAG) What is its recorded recombinant barcode read abundance (log10)?
Result block: 1.38

Query block: Consider the sequence shown here: CCAAAGACTTGGGTTCTAACCTGTTGCAT (site CCAAAGACTAT) What is its recorded recombinant barcode read abundance (log10)?
Result block: 0.523

Query block: Consider the sequence shown here: GGTAGGACTTGGGTTCTAACCTGTTGCGG (site AGTAGGCCTCC) What is its recorded recombinant barcode read abundance (log10)?
Result block: 0.0127

Query block: Consider the sequence shown here: TTCCTATCTTGGGTTCTAACCTGTTGCCT (site TTCCTATCTAG) What is its recorded recombinant barcode read abundance (log10)?
Result block: 0.354

Query block: Consider the sequence shown here: GCCTCGGCTTGGGTTCTAACCTGTTGCCT (site GCATCGGCTAG) What is its recorded recombinant barcode read abundance (log10)?
Result block: 0.0156

---

Property: recombinant UMI read abundance (log10); scope: individual sequences
- assayRemarks: recombinant UMI read abundance after kanamycin selection (control-corrected) (log10(CPM+1)); higher = more efficient recombination; extreme values may be limits of the assay; sequences stand for … in AGTGCAGAGAAAATCGGCCAGTTTTCTCTGCCTGCAGTCCGCATGCCGTGGGACCCCTTGGGTTCTAACCTGTTGCCTAGATTTATGCAGCGGACTGCCTTTCTCCCAAAGTGATAAACCGG…AGGTTGGTTTCACT; site = the 11-nt donor
Could you keep your reply to the number by itself?

The following sequences have reported results that may help.
[[record]]
chain = "ATGTTGGCATGGACCGGTTTTCCCGGTAATCCGTATTTGGC (site ATGTGGGCTGC)"
experimentalendpoint = "recombinant UMI read abundance (log10)"
recordedvalue = 0.332

[[record]]
chain = "TGGGCGGCATGGACCGGTTTTCCCGGTAATCCGTATTTGGC (site TGGTCGGCTGC)"
experimentalendpoint = "recombinant UMI read abundance (log10)"
recordedvalue = 0

[[record]]
chain = "GTTGTGCCATGGACCGGTTTTCCCGGTAATCCGTATTTGGT (site GTTGTTCCTAC)"
experimentalendpoint = "recombinant UMI read abundance (log10)"
recordedvalue = 0.0079


Query block: Consider the sequence shown here: CGGCAGACATGGACCGGTTTTCCCGGTAATCCGTATTTGGT (site CGGCAGACTAC) What is its recorded recombinant UMI read abundance (log10)?
Result block: 1.9

Query block: Consider the sequence shown here: TAGAATACATGGACCGGTTTTCCCGGTAATCCGTATTTGCA (site TAGAACACTTG) What is its recorded recombinant UMI read abundance (log10)?
Result block: 0

---

- assayRemarks: recombinant UMI read abundance after kanamycin selection (control-corrected) (log10(CPM+1)); higher = more efficient recombination; extreme values may be limits of the assay; sequences stand for … in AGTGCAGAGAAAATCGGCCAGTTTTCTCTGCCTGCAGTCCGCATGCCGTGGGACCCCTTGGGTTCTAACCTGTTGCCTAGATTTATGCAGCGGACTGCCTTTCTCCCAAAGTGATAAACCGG…AGGTTGGTTTCACT; site = the 11-nt donor
experimentalEndpoint: recombinant UMI read abundance (log10)
Could you keep your reply to the number by itself?

The following sequences have reported results that may help.
[[record]]
chain = "ATACATCCATGGACCGGTTTTCCCGGTAATCCGTATTTGAC (site AAACATCCTGT)"
experimentalendpoint = "recombinant UMI read abundance (log10)"
recordedvalue = 0

[[record]]
chain = "TGTACGTCATGGACCGGTTTTCCCGGTAATCCGTATTTGTT (site CGTACGTCTAA)"
experimentalendpoint = "recombinant UMI read abundance (log10)"
recordedvalue = 0.031


Query block: Consider the sequence shown here: CAAGTGCCATGGACCGGTTTTCCCGGTAATCCGTATTTGTG (site CAAGAGCCTCA) What is its recorded recombinant UMI read abundance (log10)?
Result block: 0.354

Query block: Consider the sequence shown here: CAAGTCACATGGACCGGTTTTCCCGGTAATCCGTATTTGTG (site CAAGTCACTCT) What is its recorded recombinant UMI read abundance (log10)?
Result block: 0.103

Query block: Consider the sequence shown here: GCTTGCCCATGGACCGGTTTTCCCGGTAATCCGTATTTGCT (site GCTTGCCCTAT) What is its recorded recombinant UMI read abundance (log10)?
Result block: 0.0783

Query block: Consider the sequence shown here: CTGAAAACATGGACCGGTTTTCCCGGTAATCCGTATTTGCA (site CTGTAAACTTG) What is its recorded recombinant UMI read abundance (log10)?
Result block: 0

Query block: Consider the sequence shown here: CAATGCTCATGGACCGGTTTTCCCGGTAATCCGTATTTGTA (site CAATGCTCTTA) What is its recorded recombinant UMI read abundance (log10)?
Result block: 3.1

Query block: Consider the sequence shown here: GTGGAGTCATGGACCGGTTTTCCCGGTAATCCGTATTTGTG (site GTGGAGCCTCA) What is its recorded recombinant UMI read abundance (log10)?
Result block: 0.572

Query block: Consider the sequence shown here: AAGAAGCCATGGACCGGTTTTCCCGGTAATCCGTATTTGCA (site AAGAAGCCTTG) What is its recorded recombinant UMI read abundance (log10)?
Result block: 1.32

Query block: Consider the sequence shown here: CAGTCGCCATGGACCGGTTTTCCCGGTAATCCGTATTTGGG (site CAGTCGACTCC) What is its recorded recombinant UMI read abundance (log10)?
Result block: 0.0111

Query block: Consider the sequence shown here: GGAGTGGCATGGACCGGTTTTCCCGGTAATCCGTATTTGTT (site GGAGTGGCTAC) What is its recorded recombinant UMI read abundance (log10)?
Result block: 0.00283

Query block: Consider the sequence shown here: AGTGTCTCATGGACCGGTTTTCCCGGTAATCCGTATTTGAG (site AGTGTCTCTCT) What is its recorded recombinant UMI read abundance (log10)?
Result block: 1.2

Query block: Consider the sequence shown here: GGCCACGCATGGACCGGTTTTCCCGGTAATCCGTATTTGTT (site GGCCACGCTAA) What is its recorded recombinant UMI read abundance (log10)?
Result block: 0.96

Query block: Consider the sequence shown here: CTCCGTACATGGACCGGTTTTCCCGGTAATCCGTATTTGCT (site CACCGTACTAG) What is its recorded recombinant UMI read abundance (log10)?
Result block: 1.41

Query block: Consider the sequence shown here: CCCCGTACATGGACCGGTTTTCCCGGTAATCCGTATTTGAT (site CCCCGTACTAT) What is its recorded recombinant UMI read abundance (log10)?
Result block: 1.45

Query block: Consider the sequence shown here: GCGACGCCATGGACCGGTTTTCCCGGTAATCCGTATTTGTA (site GCCACGCCTTA) What is its recorded recombinant UMI read abundance (log10)?
Result block: 0.0222

Query block: Consider the sequence shown here: GCTAATACATGGACCGGTTTTCCCGGTAATCCGTATTTGGC (site TCTAATACTGC) What is its recorded recombinant UMI read abundance (log10)?
Result block: 0.548

Query block: Consider the sequence shown here: ACACGCACATGGACCGGTTTTCCCGGTAATCCGTATTTGTC (site ACACGCACTGA) What is its recorded recombinant UMI read abundance (log10)?
Result block: 2.85

Query block: Consider the sequence shown here: ACACCAACATGGACCGGTTTTCCCGGTAATCCGTATTTGTC (site ACACAAACTGA) What is its recorded recombinant UMI read abundance (log10)?
Result block: 0

Query block: Consider the sequence shown here: CGCCGTACATGGACCGGTTTTCCCGGTAATCCGTATTTGCT (site CGCTGTACTAG) What is its recorded recombinant UMI read abundance (log10)?
Result block: 0

Query block: Consider the sequence shown here: ATCATGGCATGGACCGGTTTTCCCGGTAATCCGTATTTGCA (site ATCATGGCTTG) What is its recorded recombinant UMI read abundance (log10)?
Result block: 2.21

Query block: Consider the sequence shown here: CAGCTCACATGGACCGGTTTTCCCGGTAATCCGTATTTGAT (site CAGCTCACTAT) What is its recorded recombinant UMI read abundance (log10)?
Result block: 2.31
